- test-method-notes: Evaluation on solubility with respect to solvent
- Type: physicochemical
- test-context: organic solvent or mixture, thermodynamic from solid; 1 g added to 10 ml of tetrahydrofuran at 20° C., stirred for one hour, visually checked; read-out: Evaluation on solubility Tetrahydrofuran
measured-parameter: solubility at 1 h

solubility at 1 h lookup needed for C=Cc1ccc(COc2ccc(C(C)(c3ccc(OCc4ccc(C=C)cc4)cc3)c3ccc(OCc4ccc(C=C)cc4)cc3)cc2)cc1 [Compound (C)] , thanks. > 100 mg/mL

Measured values drawn from patent US8900783B2 for this set.
